# Protocol notes: non-covalent RecA intein splicing inhibitors, dose response, biochemical, cell-free, fluorescence, secondary screen (AID 449750)
The source made the active and inactive calls. No rule for the calls is given here.
Assign a class; possible classes are 1.0 = active, 0.0 = inactive

INSERT INTO assay_data (compound, class_assignment) VALUES
  ('O=C(Cc1cc(=O)[nH][nH]1)N/N=C/c1ccccc1Cl', 1.0),
  ('Cc1cc(C)c(C#N)c(SCc2[nH]nc3c2C(c2ccc(F)cc2)C(C#N)=C(N)O3)n1 (configuration not stated)', 1.0),
  ('Cc1ccc(C(=O)C(OC(=O)CN2C(=O)c3ccccc3C2=O)c2ccccc2)cc1C (configuration not stated)', 0.0),
  ('Cn1c(/N=C/c2c(O)ccc3ccccc23)nc2ccccc21', 1.0),
  ('CCOc1ccc(/C=C2\SC(=S)N(CCC(=O)Nc3ccccc3C(=O)O)C2=O)cc1', 1.0),
  ('COc1ccc(/C=C/C(=O)c2ccc(O)cc2)cc1COc1ccc(F)cc1', 0.0),
  ('N#CC(c1ccccc1)c1cnccn1 (configuration not stated)', 0.0),
  ('CCCc1[nH]nc2c1C(c1cccc(OC)c1)C(C#N)=C(N)O2 (configuration not stated)', 0.0),
  ('O=[N+]([O-])c1c(NCc2ccco2)ccc2nonc12', 0.0),
  ('CCOC(=O)CSCC(=O)N1N=C(c2cccs2)CC1c1ccc(F)cc1 (configuration not stated)', 1.0);

Ask: Per the records of this test, what outcome belongs to N#CC1=C(N)Oc2n[nH]c(-c3cccs3)c2C1c1ccccc1C(=O)O (configuration not stated) ?
Reply: 1.0

Ask: # lookup: test call for Cc1[nH]n(-c2ccccc2)c(=O)c1C(c1ccccc1[N+](=O)[O-])C(C#N)C#N (configuration not stated)
Reply: 1.0

Ask: Which result was noted for this compound in the test: O=C(NNC(=O)c1ccc([N+](=O)[O-])o1)c1ccccc1
Reply: 1.0

Ask: Any idea what this test logged for Cc1ccc(-c2noc(-c3ccccc3C(=O)N3CCOCC3)n2)cc1 ?
Reply: 0.0

Ask: Dear all, I need the recorded test outcome for COc1ccccc1/C=C/C1(C(=O)NC2CCCC2)CC(=O)N1c1ccc(F)cc1 (configuration not stated) , thank you.
Reply: 1.0

---

# Protocol notes: non-covalent RecA intein splicing inhibitors, dose response, biochemical, cell-free, fluorescence, secondary screen (AID 449750)
Active and inactive are the calls of the source. No rule for the calls is given here.
Write down the outcome that applies. Available outcomes: t (active), f (inactive)

The following compounds have reported results that may help.
INSERT INTO measurements (compound, class_assignment) VALUES
  ('CCOC(=O)Cn1cc(/C=N/NC(=O)CC#N)c2ccccc21', 'f'),
  ('COc1cc(C2CC(c3cccs3)=NN2C(=O)CCl)ccc1OC(F)F (stereo unspecified)', 'f'),
  ('O=[N+]([O-])c1cccc(C=Nc2cccc3ccccc23)c1O', 'f'),
  ('COc1ccc(N2C(=O)CSC23C(=O)N2c4c(cccc43)C(C)=CC2(C)C)cc1 (stereo unspecified)', 't'),
  ('COc1ccc(-c2cc(C(=O)n3cnc4ccccc43)c3ccccc3n2)cc1', 'f');

Ask: Called result for CCc1ccc2c(c1)C(NC(C)=O)C(=O)N2CCN1CCOCC1 (stereo unspecified)
Reply: t

Ask: Can you look up the reported call for CCOc1cc(/C=C2/C(=N)N3C(=NC2=O)SN=C3S(=O)(=O)C(C)C)ccc1OC(=O)c1ccco1 for me?
Reply: f

Ask: Which outcome was assigned to [O-]C1=N/[N+](=C/c2ccc(Cl)cc2)CC1 in this test?
Reply: f

Ask: Recorded call for Cc1ccc(C2C(C#N)=C(N)Oc3n[nH]c(-c4cccs4)c32)cc1 (stereo unspecified) ?
Reply: t

Ask: So what was the verdict on Nc1ccc(N(CCO)CCO)cc1 in this test?
Reply: f

Ask: Query: recorded result category for Cc1ccc(N2C(=O)C(Cl)=C(N3CCOCC3)C2=O)cc1Cl in this test
Reply: f
